Measured values drawn from patent US5625031A for this set.

# Target desc: HPV18-E7 protein (Human papillomavirus type 18, UniProt P06788)
# Construct: made in house
# Sequence (P06788 whole entry): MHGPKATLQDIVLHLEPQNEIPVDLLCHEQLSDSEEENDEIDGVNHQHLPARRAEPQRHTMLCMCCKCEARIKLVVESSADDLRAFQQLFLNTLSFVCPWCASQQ
# Experiment: biochemical
# Format: binding
Where no end group is shown, it is not given here.

[
  {
    "Primary sequence": "LCAFYIMAK [9mer, LCAFYIMAK]",
    "Target desc": "HPV18-E7 protein (Human papillomavirus type 18, UniProt P06788)",
    "Kd": "~1 nM"
  }
]

====

# Target desc: p34^cdc2 (Homo sapiens, UniProt P06493)
# Sequence (P06493 whole entry): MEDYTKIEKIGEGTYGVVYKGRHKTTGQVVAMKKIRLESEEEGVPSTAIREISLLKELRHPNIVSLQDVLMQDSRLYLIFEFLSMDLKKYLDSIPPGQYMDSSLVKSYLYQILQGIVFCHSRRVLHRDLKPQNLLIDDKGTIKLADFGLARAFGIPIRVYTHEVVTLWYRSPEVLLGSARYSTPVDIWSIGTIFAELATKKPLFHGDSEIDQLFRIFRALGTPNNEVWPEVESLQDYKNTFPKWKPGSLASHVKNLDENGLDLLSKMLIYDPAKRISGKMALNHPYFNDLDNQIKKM
# Experiment: Peptide inhibition of p34^cdc2 immune complex histone H1 kinase activity
# Format: biochemical
# Design: endogenous in cells; host or cells: HeLa
# Experimental setup: percent inhibition plotted versus peptide concentration, FIG. 2; read-out: kd calculated from the point of 50% inhibition of histone H1 kinase activity
Where no end group is shown, it is not given here.
Measure: Kd

[
  {
    "Primary sequence": "LCAFYIMAK [9mer, LCAFYIMAK]",
    "Observed result": "~10 µM"
  }
]

====

Some sequences, each annotated with its measured IC50.
# Target desc: p34^cdc2 (Homo sapiens, UniProt P06493)
# Experiment: ELISA based competition assay: p34^cdc2 kinase from cell extracts binding to a p107 30mer coated plate
# Design: endogenous in cells; HeLa per the general methods
# Experimental setup: Table 1 binding; assay not given, taken as ELISA competition for p34^cdc2 binding; read-out: IC50
Where no end group is shown, it is not given here.
Measure: IC50

[
  {
    "Primary sequence": "LCAKYIMAK [715FK, LCAKYIMAK]",
    "Observed result": "> 100 µM"
  },
  {
    "Primary sequence": "LCAFYKMAK [717IK, LCAFYKMAK]",
    "Observed result": "> 100 µM"
  },
  {
    "Primary sequence": "LCAAYIMAK [715FA, LCAAYIMAK]",
    "Observed result": "> 100 µM"
  }
]
